The values you see were collected from patent US12673944B2.

# tested_target: glucosylceramide synthase (GCS) (Homo sapiens, UniProt Q16739)
# Construct: The obtained supernatant was used
# Sequence (Q16739 1-394): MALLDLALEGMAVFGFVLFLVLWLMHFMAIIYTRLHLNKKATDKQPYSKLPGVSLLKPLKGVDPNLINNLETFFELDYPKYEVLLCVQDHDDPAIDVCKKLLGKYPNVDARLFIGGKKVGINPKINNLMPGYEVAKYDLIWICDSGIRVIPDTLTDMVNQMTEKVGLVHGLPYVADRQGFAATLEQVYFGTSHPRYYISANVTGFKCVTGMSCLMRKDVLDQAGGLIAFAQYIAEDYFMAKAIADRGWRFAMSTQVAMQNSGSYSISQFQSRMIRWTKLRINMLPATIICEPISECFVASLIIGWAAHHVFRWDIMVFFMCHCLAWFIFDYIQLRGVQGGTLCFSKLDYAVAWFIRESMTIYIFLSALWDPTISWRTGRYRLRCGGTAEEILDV
# procedure_details: GCS enzyme inhibition assay (A549 cell lysate, NBD C6-ceramide, HPLC fluorescence)
# condition_label: inhibitory activity against GCS, 37° C., 90 minutes
value_kind: IC50 (pM)
The response must be a number in pM with no trailing unit.

Which IC50 value belongs to O=C(NC1CCOc2cc(-c3ccc(Cl)cc3)ccc21)O[C@@H]1CN2CCC1CC2 (stereo partly shown) ?
9670

Which IC50 value belongs to COc1ccc(-c2cc3c(cc2OC)C(NC(=O)O[C@@H]2CN4CCC2CC4)C(C)(C)CO3)cc1 (stereo partly shown) ?
580

Which IC50 value belongs to COc1cccc(OC)c1-c1ccc2c(c1)OCC(C)(C)C2NC(=O)O[C@@H]1CN2CCC1CC2 (stereo partly shown) ?
1400

Which IC50 value belongs to COc1cccc(-c2cc3c(cc2F)C(NC(=O)O[C@@H]2CN4CCC2CC4)C(C)(C)CO3)c1 (stereo partly shown) ?
350

###

# tested_target: glucosylceramide synthase (GCS) (Homo sapiens)
# Construct: The obtained supernatant was used
# Sequence (Q16739 1-394): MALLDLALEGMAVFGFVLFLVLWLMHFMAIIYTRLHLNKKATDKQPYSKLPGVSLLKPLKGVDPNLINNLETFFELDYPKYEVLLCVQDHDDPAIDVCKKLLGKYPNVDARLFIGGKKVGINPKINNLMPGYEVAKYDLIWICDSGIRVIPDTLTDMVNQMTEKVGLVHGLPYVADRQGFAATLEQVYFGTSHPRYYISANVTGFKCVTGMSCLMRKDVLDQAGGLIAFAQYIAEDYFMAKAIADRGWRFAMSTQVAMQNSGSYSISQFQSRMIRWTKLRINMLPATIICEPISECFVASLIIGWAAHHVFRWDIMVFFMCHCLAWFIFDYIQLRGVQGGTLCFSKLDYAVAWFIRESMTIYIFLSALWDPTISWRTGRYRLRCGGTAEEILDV
# procedure_details: GCS enzyme inhibition assay (A549 cell lysate, NBD C6-ceramide, HPLC fluorescence)
# condition_label: inhibitory activity against GCS, 37° C., 90 minutes
# Method: Ibiglustat, known as a GCS inhibitor, was used as a control. After the cells attached to the culture dish were washed with phosphate buffered saline (PBS), the cells were scraped off with a cell scraper and then centrifuged (4000 rpm, 3 min, 4° C.) to collect the cells in a 50 ml tube. […] The obtained supernatant was used for the quantitative analysis of proteins. The amount of proteins was measured using the BCA protein assay kit, using bovine serum albumin as a standard. […]
value_kind: pIC50
# reply with the number alone; pIC50 is -log10 of concentration in mol/L

Which pIC50 value belongs to O=C(NC1CCOc2ccc(-c3ccccc3OC(F)(F)F)cc21)O[C@@H]1CN2CCC1CC2 (some centres unmarked) ?
8.07

Which pIC50 value belongs to Cc1cc(F)ccc1-c1ccc2c(c1)OCC(C)(C)C2NC(=O)O[C@@H]1CN2CCC1CC2 (some centres unmarked) ?
9.25

Which pIC50 value belongs to O=C(NC1CCOc2cc(-c3ccc(F)c(C(F)(F)F)c3)ccc21)O[C@@H]1CN2CCC1CC2 (some centres unmarked) ?
8.84

Which pIC50 value belongs to CC1(C)COc2cc(-c3cccc4cccnc34)ccc2C1NC(=O)O[C@@H]1CN2CCC1CC2 (some centres unmarked) ?
9.09

Which pIC50 value belongs to O=C(NC1CCOc2cc(-c3ccc4c(c3)COC4)ccc21)O[C@@H]1CN2CCC1CC2 (some centres unmarked) ?
8.87

Which pIC50 value belongs to CC1(C)COc2cc(-c3cc(F)cc(F)c3)ccc2C1NC(=O)O[C@@H]1CN2CCC1CC2 (some centres unmarked) ?
9.04

Which pIC50 value belongs to Cc1cc(-c2ccc3c(c2)OCC(C)(C)C3NC(=O)O[C@@H]2CN3CCC2CC3)ccc1N1CCOCC1 (some centres unmarked) ?
9.22

Which pIC50 value belongs to Cc1cc(-c2ccc3c(c2)OCCC3NC(=O)O[C@@H]2CN3CCC2CC3)ccc1N1CCOCC1 (some centres unmarked) ?
8.61
